- system: GABA-A receptor; alpha-5/beta-3/gamma-2 (Homo sapiens, UniProt P18507+P28472+P31644)
- Sequence (P18507 whole entry): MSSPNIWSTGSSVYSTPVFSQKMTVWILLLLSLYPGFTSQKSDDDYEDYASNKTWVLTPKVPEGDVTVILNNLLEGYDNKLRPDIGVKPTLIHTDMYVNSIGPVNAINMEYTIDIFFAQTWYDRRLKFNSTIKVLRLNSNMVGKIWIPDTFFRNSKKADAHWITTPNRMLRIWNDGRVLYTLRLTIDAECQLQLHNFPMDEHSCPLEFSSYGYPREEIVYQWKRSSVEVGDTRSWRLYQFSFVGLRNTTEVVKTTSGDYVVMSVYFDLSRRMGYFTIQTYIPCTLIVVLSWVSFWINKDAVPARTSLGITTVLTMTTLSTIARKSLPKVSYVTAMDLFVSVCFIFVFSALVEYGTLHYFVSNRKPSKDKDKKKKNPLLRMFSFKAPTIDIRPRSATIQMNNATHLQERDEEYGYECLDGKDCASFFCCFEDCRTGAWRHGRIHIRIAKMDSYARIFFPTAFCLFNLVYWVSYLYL
- Sequence (P28472 whole entry): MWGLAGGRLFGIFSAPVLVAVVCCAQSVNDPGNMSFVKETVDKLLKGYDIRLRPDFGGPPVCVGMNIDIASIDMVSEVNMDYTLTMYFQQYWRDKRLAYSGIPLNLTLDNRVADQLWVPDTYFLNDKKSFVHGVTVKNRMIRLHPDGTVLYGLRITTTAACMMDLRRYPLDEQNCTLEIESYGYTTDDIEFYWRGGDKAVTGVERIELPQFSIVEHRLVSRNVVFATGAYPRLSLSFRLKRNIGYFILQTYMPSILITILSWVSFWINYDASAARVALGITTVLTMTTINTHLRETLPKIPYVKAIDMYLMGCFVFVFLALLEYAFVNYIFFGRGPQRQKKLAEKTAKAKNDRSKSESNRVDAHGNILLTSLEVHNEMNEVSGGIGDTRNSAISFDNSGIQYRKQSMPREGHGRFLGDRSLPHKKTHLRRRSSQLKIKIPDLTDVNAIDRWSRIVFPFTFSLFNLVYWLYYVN
- Sequence (P31644 whole entry): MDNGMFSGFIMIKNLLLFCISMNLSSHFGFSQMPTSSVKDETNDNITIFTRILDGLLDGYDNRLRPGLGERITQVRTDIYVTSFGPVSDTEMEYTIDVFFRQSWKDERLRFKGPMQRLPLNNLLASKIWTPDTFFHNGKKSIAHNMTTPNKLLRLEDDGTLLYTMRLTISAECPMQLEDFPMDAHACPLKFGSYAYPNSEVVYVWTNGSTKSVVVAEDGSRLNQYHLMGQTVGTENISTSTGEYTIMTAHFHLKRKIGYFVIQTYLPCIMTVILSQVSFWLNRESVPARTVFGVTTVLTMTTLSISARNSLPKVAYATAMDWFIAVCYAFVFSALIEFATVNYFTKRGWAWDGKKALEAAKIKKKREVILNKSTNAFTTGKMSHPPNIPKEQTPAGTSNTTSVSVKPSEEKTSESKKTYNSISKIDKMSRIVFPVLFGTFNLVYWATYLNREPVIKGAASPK
- protocol.details: […] human GABA-A receptor alpha5beta3gamma2 expressed in HEK293 cells by electrophysiology assay
pEC50: −log10 of the molar value.
measurement.type: pEC50

1. CC(C)[C@@H]1N=C(c2ccccc2)c2cc(Cl)ccc2NC1=S    < 4.62
